tested on: Streptococcus pyogenes SSI-9; assay: Antibacterial activity assay of bead-derived peptides (three concentrations); assay type: cell-based; design: key: +++: inhibition by the 640-fold diluted peptide solution; ++: inhibition by the 160-fold diluted solution; +: inhibition by the 40-fold diluted solution; -: no inhibition; conditions: S. pyogenes, bead-derived peptide solution, three concentrations
Where a SMILES comes first, the peptide text is derived from it. [ ]: non-standard residue; d: D form. The star is where a group is joined. NHCH2CH2OH = OCCN*; For = O=C*
result_type: antibacterial activity

1. CC(C)C[C@@H](NC(=O)[C@H](Cc1c[nH]c2ccccc12)NC(=O)[C@@H](CC(C)C)NC(=O)[C@H](Cc1c[nH]c2ccccc12)NC(=O)[C@@H](CC(C)C)NC(=O)[C@H](Cc1c[nH]c2ccccc12)NC(=O)[C@H](NC(=O)[C@@H](NC(=O)[C@H](NC(=O)[C@H](C)NC(=O)[C@H](NC(=O)[C@H](C)NC(=O)CNC(=O)[C@@H](NC=O)C(C)C)C(C)C)[C@H](C)O)C(C)C)C(C)C)C(=O)N[C@@H](Cc1c[nH]c2ccccc12)C(=O)NCCO [compound 13151] (For-VGA[dV]A[dT]V[dV]W[dL]W[dL]W[dL]W-NHCH2CH2OH) ... -

###

test system: Streptococcus pyogenes SSI-9; test: Antibacterial activity assay of bead-derived peptides (three concentrations); type: cell-based; parameters: key: +++: inhibition by the 640-fold diluted peptide solution; ++: inhibition by the 160-fold diluted solution; +: inhibition by the 40-fold diluted solution; -: no inhibition; conditions: S. pyogenes, bead-derived peptide solution, three concentrations
Where a SMILES comes first, the peptide text is derived from it. [ ]: non-standard residue; d: D form. The star is where a group is joined. NHCH2CH2OH = OCCN*; For = O=C*
result_type: antibacterial activity

1. CNC(=O)C[C@@H](NC(=O)[C@@H](NC(=O)[C@@H](CC(C)C)NC(=O)[C@H](C)NC(=O)[C@@H](CC(C)C)NC(=O)[C@H](C)NC(=O)CNC(=O)[C@@H](NC=O)C(C)C)C(C)C)C(=O)N[C@@H](Cc1c[nH]c2ccccc12)C(=O)N[C@@H](C(=O)N[C@@H](Cc1c[nH]c2ccccc12)C(=O)N[C@H](CC(C)C)C(=O)N[C@@H](Cc1c[nH]c2ccccc12)C(=O)N[C@H](CC(C)C)C(=O)N[C@@H](Cc1c[nH]c2ccccc12)C(=O)NCCO)C(C)C [compound 2978] (For-VGA[dL]A[dL]V[dD](NHMe)W[dV]W[dL]W[dL]W-NHCH2CH2OH) ... -
2. CC(C)C[C@@H](NC(=O)[C@H](C)NC(=O)[C@H](NC(=O)[C@H](C)NC(=O)CNC(=O)[C@@H](NC=O)C(C)C)C(C)C)C(=O)N[C@H](C(=O)N[C@@H](C(=O)N[C@@H](Cc1c[nH]c2ccccc12)C(=O)N[C@@H](C(=O)N[C@@H](Cc1c[nH]c2ccccc12)C(=O)N[C@H](CC(C)C)C(=O)N[C@@H](Cc1c[nH]c2ccccc12)C(=O)N[C@H](CC(C)C)C(=O)N[C@@H](Cc1c[nH]c2ccccc12)C(=O)NCCO)C(C)C)[C@H](C)O)C(C)C [compound 11433] (For-VGA[dV]A[dL]V[dT]W[dV]W[dL]W[dL]W-NHCH2CH2OH) ... -

###

tested on: P388 mouse leukemia cells; settings: 92 h
Where a SMILES comes first, the peptide text is derived from it. [ ]: non-standard residue; d: D form. The star is where a group is joined. NHCH2CH2OH = OCCN*; For = O=C*
result_type: cell viability/% (%)
Answer format: numeric, % implied, no suffix.

1. CC(C)C[C@@H](NC(=O)[C@H](C)NC(=O)CNC(=O)[C@@H](NC=O)C(C)C)C(=O)N[C@@H](C)C(=O)N[C@H](CC(C)C)C(=O)N[C@H](C(=O)N[C@@H](C(=O)N[C@@H](Cc1c[nH]c2ccccc12)C(=O)N[C@@H](C(=O)N[C@@H](Cc1c[nH]c2ccccc12)C(=O)N[C@@H](C(=O)N[C@@H](Cc1c[nH]c2ccccc12)C(=O)N[C@H](CC(C)C)C(=O)N[C@@H](Cc1c[nH]c2ccccc12)C(=O)NCCO)C(C)C)C(C)C)C(C)C)C(C)C [compound 12040] (For-VGA[dL]A[dL]V[dV]W[dV]W[dV]W[dL]W-NHCH2CH2OH) ... 100.0

Moving on to the next compound.
Entry CC(C)C[C@@H](NC(=O)[C@H](C)NC(=O)CNC(=O)[C@@H](NC=O)C(C)C)C(=O)N[C@@H](C)C(=O)N[C@H](CC(C)C)C(=O)N[C@H](C(=O)N[C@H](CC(C)C)C(=O)N[C@@H](Cc1c[nH]c2ccccc12)C(=O)N[C@H](CC(C)C)C(=O)N[C@@H](Cc1c[nH]c2ccccc12)C(=O)N[C@@H](C(=O)N[C@@H](Cc1c[nH]c2ccccc12)C(=O)N[C@@H](C(=O)N[C@@H](Cc1c[nH]c2ccccc12)C(=O)NCCO)C(C)C)C(C)C)C(C)C [compound 4313] (For-VGA[dL]A[dL]V[dL]W[dL]W[dV]W[dV]W-NHCH2CH2OH) needs its cell viability/% filled in; supply it.
3.2

###

test system: Streptococcus pyogenes SSI-9; assay: Antibacterial activity assay of bead-derived peptides (three concentrations); type: cell-based; design: key: +++: inhibition by the 640-fold diluted peptide solution; ++: inhibition by the 160-fold diluted solution; +: inhibition by the 40-fold diluted solution; -: no inhibition; conditions: S. pyogenes, bead-derived peptide solution, three concentrations
Where a SMILES comes first, the peptide text is derived from it. [ ]: non-standard residue; d: D form. The star is where a group is joined. NHCH2CH2OH = OCCN*; For = O=C*
result_type: antibacterial activity

1. CC(C)C[C@@H](NC(=O)[C@H](C)NC(=O)[C@H](NC(=O)[C@H](C)NC(=O)CNC(=O)[C@@H](NC=O)C(C)C)C(C)C)C(=O)N[C@H](C(=O)N[C@@H](C(=O)N[C@@H](Cc1c[nH]c2ccccc12)C(=O)N[C@H](CC(C)C)C(=O)N[C@@H](Cc1c[nH]c2ccccc12)C(=O)N[C@@H](C(=O)N[C@@H](Cc1c[nH]c2ccccc12)C(=O)N[C@@H](C(=O)N[C@@H](Cc1c[nH]c2ccccc12)C(=O)NCCO)C(C)C)C(C)C)[C@H](C)O)C(C)C [compound 9487] (For-VGA[dV]A[dL]V[dT]W[dL]W[dV]W[dV]W-NHCH2CH2OH) ... -
2. CC(C)C[C@@H](NC(=O)[C@H](C)NC(=O)CNC(=O)[C@@H](NC=O)C(C)C)C(=O)N[C@@H](C)C(=O)N[C@@H](C(=O)N[C@H](C(=O)N[C@@H](C(=O)N[C@@H](Cc1c[nH]c2ccccc12)C(=O)N[C@@H](C(=O)N[C@@H](Cc1c[nH]c2ccccc12)C(=O)N[C@@H](C(=O)N[C@@H](Cc1c[nH]c2ccccc12)C(=O)N[C@H](CC(C)C)C(=O)N[C@@H](Cc1c[nH]c2ccccc12)C(=O)NCCO)C(C)C)C(C)C)C(C)C)C(C)C)[C@H](C)O [compound 2475] (For-VGA[dL]A[dT]V[dV]W[dV]W[dV]W[dL]W-NHCH2CH2OH) ... -

###

test system: Streptococcus pyogenes SSI-9; assay: Antibacterial activity assay of bead-derived peptides (three concentrations); type: cell-based; parameters: key: +++: inhibition by the 640-fold diluted peptide solution; ++: inhibition by the 160-fold diluted solution; +: inhibition by the 40-fold diluted solution; -: no inhibition; details: S. pyogenes, bead-derived peptide solution, three concentrations
Where a SMILES comes first, the peptide text is derived from it. [ ]: non-standard residue; d: D form. The star is where a group is joined. NHCH2CH2OH = OCCN*; For = O=C*
result_type: antibacterial activity

1) CC(C)C[C@@H](NC(=O)[C@H](C)NC(=O)CNC(=O)[C@@H](NC=O)C(C)C)C(=O)N[C@@H](C)C(=O)N[C@@H](C(=O)N[C@H](C(=O)N[C@@H](C(=O)N[C@@H](Cc1c[nH]c2ccccc12)C(=O)N[C@@H](C(=O)N[C@@H](Cc1c[nH]c2ccccc12)C(=O)N[C@H](CC(C)C)C(=O)N[C@@H](Cc1c[nH]c2ccccc12)C(=O)N[C@H](CC(C)C)C(=O)N[C@@H](Cc1c[nH]c2ccccc12)C(=O)NCCO)C(C)C)C(C)C)C(C)C)C(C)C [compound 2082] (For-VGA[dL]A[dV]V[dV]W[dV]W[dL]W[dL]W-NHCH2CH2OH) ... +
2) CC(C)C[C@@H](NC(=O)[C@H](C)NC(=O)[C@H](NC(=O)[C@H](C)NC(=O)CNC(=O)[C@@H](NC=O)C(C)C)[C@H](C)O)C(=O)N[C@H](C(=O)N[C@H](CC(C)C)C(=O)N[C@@H](Cc1c[nH]c2ccccc12)C(=O)N[C@@H](C(=O)N[C@@H](Cc1c[nH]c2ccccc12)C(=O)N[C@H](CC(C)C)C(=O)N[C@@H](Cc1c[nH]c2ccccc12)C(=O)N[C@@H](C(=O)N[C@@H](Cc1c[nH]c2ccccc12)C(=O)NCCO)C(C)C)[C@H](C)O)C(C)C [compound 4545] (For-VGA[dT]A[dL]V[dL]W[dT]W[dL]W[dV]W-NHCH2CH2OH) ... -

Hey, just so you know, these numbers are from paper PMC7531004.
